- procedure details: qHTS Assay for NPC1 Promoter Activators; also: nearly all actives have a fitted effect of over 60% in size;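 as to activation: reporter is driven by a mutant NPC1 promoter; % of control where 0% means no effect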
- condition parameters: Huh7 NPC1 promoter luciferase reporter, 24 h; series mostly up to 9.22 µM
The whole screen tested about 320,000 compounds, of which about 7,600 (2.4%) were called active. Roughly 3% stayed inconclusive and do not appear here. Calls follow the shape of the dose curve; as a rule, active = well fitted activation curve with a large enough effect; inconclusive = small, poorly fitted or top-dose-only effect; inactive = no such curve, though single readings can be large or run the other way. Many of the other results were omitted from the sample, so actives are more common in it than they were.
I would appreciate it if you answered using one of these outcomes: true (1) = active, false (0) = inactive

These recorded examples may help you get a feel for the data.
{"columns": ["compound", "label"],
 "data": [
  ["Cc1ccc(C(=O)O/N=C(\\N)c2ccccn2)cc1Cl", "true (1)"],
  ["N/C(=N\\OC(=O)c1ccc([N+](=O)[O-])cc1)c1ccccn1", "true (1)"],
  ["Cc1ccc(/C(N)=N/OC(=O)COc2ccc(Cl)c(C)c2)cc1", "false (0)"],
  ["O=C(OCc1cc(=O)n2ccsc2n1)C1(c2ccc(Cl)cc2)CC1", "false (0)"],
  ["Cc1ccc(NC(=O)C(C)Sc2nnc(C3CC3)n2C2CC2)cc1S(=O)(=O)N1CCOCC1 (stereo not given)", "false (0)"]
]}

**Q:** Please indicate how the test categorized `COC(=O)c1ccc(-c2c(-c3ccccc3)ncc3cc(OC)c(OC)cc23)cc1` .
**A:** false (0)

**Q:** Just curious, what result did `COc1ccc(C(=O)O/N=C(\N)c2ccccn2)cc1[N+](=O)[O-]` get here?
**A:** true (1)

**Q:** Please share the test call associated with `CC(C)NC(=O)N1CCN(c2ccncc2S(=O)(=O)N2CCCCC2)CC1` .
**A:** false (0)

**Q:** Status in this test for `CCN(C(=O)COC(=O)c1c(C)nn(-c2ccccc2)c1Cl)c1c(N)n(Cc2ccccc2)c(=O)[nH]c1=O` ?
**A:** false (0)

**Q:** Which outcome was assigned to `Cn1c(SCC(=O)Nc2ccc(N3CCOCC3)cc2)nnc1C(F)(F)F` in this test?
**A:** false (0)

----------
- procedure details: qHTS Assay for NPC1 Promoter Activators; also: nearly all actives have a fitted effect of over 60% in size;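 as to activation: reporter is driven by a mutant NPC1 promoter; % of control where 0% means no effect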
- condition parameters: Huh7 NPC1 promoter luciferase reporter, 24 h; series mostly up to 9.22 µM
The campaign covered roughly 320,000 compounds. About 7,600 (2.4%) were called active. Inconclusive results (about 3%) are left out. Calls come from the whole dose curve; as a rule, active = well fitted activation curve with a large enough effect; inconclusive = small, poorly fitted or top-dose-only effect; inactive = no such curve, though single readings can be large or run the other way. Only a selection was taken, and actives are over-represented in it overall.
Write down the outcome that applies. Available outcomes: active, inactive

Examples from the recorded data:
{"columns": ["compound", "label"],
 "data": [
  ["C/C(=N\\Nc1nc(Nc2ccccc2)nc(N2CCOCC2)n1)c1cccs1", "inactive"],
  ["O=C(C(=O)N1CCc2ccccc2C1)N1CCc2ccccc2C1", "inactive"],
  ["CSCCNC(=O)c1ccc2nc(Cc3ccccc3F)oc2c1", "active"],
  ["C=CCn1cc(-c2cccc(C(F)(F)F)c2)cc(C#N)c1=O", "inactive"]
]}

**Q:** Test call for this compound, please: `CC(=O)NCCC(=O)Nc1cc(S(=O)(=O)N2CCCCC2)ccc1Oc1cccc(C)c1`
**A:** inactive

**Q:** Could you check what this test reported for `C/C(=N\Nc1ncc(Cl)cc1Cl)c1cccs1` ?
**A:** active

**Q:** Per the records of this test, what outcome belongs to `Cn1c(=NC(=O)c2ccco2)sc2cccc(F)c21` ?
**A:** active

**Q:** Assay outcome for `O=S(=O)(NC1CCN(S(=O)(=O)c2ccc3c(c2)OCCO3)CC1)c1c(F)cccc1F` : what was it?
**A:** inactive

**Q:** Which outcome was assigned to `Cc1ccc2c(CN3CCN(S(=O)(=O)c4ccccc4C(F)(F)F)CC3)cc(=O)oc2c1` in this test?
**A:** inactive

**Q:** Any idea what this test logged for `CCCC(=O)N(CCN1CCOCC1)c1nc2ccc(OCC)cc2s1` ?
**A:** inactive

**Q:** For `O=C(COC(=O)c1ccc(N2CCCC2=O)cc1)c1ccc(OC(F)F)cc1` , which call appears in the assay record?
**A:** inactive

**Q:** Could you please tell me the result logged for CCC(C(=O)N1CCN(S(=O)(=O)c2sc(C(=O)O)c(C)c2C(=O)O)CC1)c1ccccc1 (centres undefined) in this assay?
**A:** inactive

**Q:** Write down the call the test reported for this compound. Item: `CCOC(=O)[C@@H]1[C@H]2COc3ccc(Br)cc3[C@H]2N2C(=O)N(c3ccc(Cl)cc3)C(=O)[C@@]12C`
**A:** inactive

**Q:** What was the test verdict on `O=C(CSc1ncnc2sccc12)N1CCN(C(=O)c2cccs2)CC1` ?
**A:** inactive

**Q:** Assay result, entry `CC(=O)Nc1cccc(C(=O)OCC(=O)NCc2cc(C)c(O)c(C)c2)c1` — outcome?
**A:** inactive

**Q:** # outcome recorded in this test, key = `CCOc1ccc(NC(=O)CN(C)C(=O)Cn2c(=O)cnc3ccccc32)cc1OCC`
**A:** inactive

**Q:** I would be grateful if you could indicate the recorded call for `O=C(C1CCC1)N1CCN(S(=O)(=O)c2ccc([N+](=O)[O-])cc2)CC1` .
**A:** inactive

**Q:** Assay outcome for `O=C(COC(=O)c1ccccc1)c1ccc2c(c1)OCCO2` : what was it?
**A:** active

**Q:** Outcome? `CC(C)C[C@H](NC(=O)[C@H](O)[C@H](N)Cc1ccccc1)C(=O)O`
**A:** inactive
